# Ki against Adenosine receptor A2a (Homo sapiens), merged from multiple literature sources
# Sequence (P29274 whole entry): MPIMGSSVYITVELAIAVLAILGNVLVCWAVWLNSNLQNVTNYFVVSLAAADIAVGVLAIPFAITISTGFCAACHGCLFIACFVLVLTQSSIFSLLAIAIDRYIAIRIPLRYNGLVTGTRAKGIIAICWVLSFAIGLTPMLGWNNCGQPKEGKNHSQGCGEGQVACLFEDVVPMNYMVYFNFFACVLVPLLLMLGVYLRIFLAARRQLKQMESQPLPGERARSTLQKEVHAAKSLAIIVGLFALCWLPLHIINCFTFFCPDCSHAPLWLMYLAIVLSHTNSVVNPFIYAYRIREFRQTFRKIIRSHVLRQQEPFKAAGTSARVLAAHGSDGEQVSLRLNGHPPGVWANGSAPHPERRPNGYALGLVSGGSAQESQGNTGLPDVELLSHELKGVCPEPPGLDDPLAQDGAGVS

Would you please look over these solved cases?
[[record]]
compound = "CCC1CN2C(=O)N(Cc3ccccc3)c3nc(-c4cc(OC)no4)[nH]c3C2=N1 (racemic)"
result = "> 5000 nM"

[[record]]
compound = "COc1cc(OCC(=O)Nc2ccc(F)cc2)ccc1-c1cc2c([nH]1)c(=O)n(C)c(=O)n2C"
result = "95.5 nM"

[[record]]
compound = "COc1ccc(NC(=O)Nc2nc3cn(CCCc4ccccc4)nc3c3nc(-c4ccco4)nn23)cc1"
result = "> 1000 nM"


// returns Ki for Cn1c(=O)c2c(cc(/C=C/c3ccc(Br)cc3)n2C)n(C)c1=O with Adenosine receptor A2a (Homo sapiens); value = > 10000 nM

// returns Ki for CCNC(=O)[C@H]1OC(n2cnc3c(NC(=O)Nc4ccc(S(=O)(=O)N(C)C)cc4)ncnc32)C(O)C1O (single isomer, unassigned) with Adenosine receptor A2a (Homo sapiens); value = > 1000 nM

// returns Ki for Nc1nc2c(cnn2CCN2CCN(c3ccc(OCC(=O)O)cc3)CC2)c2nc(C(O)CCC(=O)O)nn12 (stereo unspecified) with Adenosine receptor A2a (Homo sapiens); value = > 1000 nM
